Assay: Pharmacokinetic study after oral administration in SD rats
Format: in vivo, rat
Conditions: male, Sprague-Dawley, rat, in vivo, po, 150 mg/kg
OBSERVED_PROPERTY: Cmax (ng/mL)
Please respond with the number in ng/mL and leave the unit unwritten.

Entry CCN(CC)C(=O)CC(C)(C(=O)/C=C/c1ccc(OC)c(OC)c1)C(=O)/C=C/c1ccc(OC)c(OC)c1 has what Cmax?
35.9

* * *

Experiment: Pharmacokinetic study after oral administration in SD rats
Format: in vivo, rat
Settings: male, Sprague-Dawley, rat, in vivo, po, 150 mg/kg, AUC(0-8)
OBSERVED_PROPERTY: AUC(0-t) (ng·h/mL)
Please respond with the number in ng·h/mL and leave the unit unwritten.

Entry CCN(CC)C(=O)CC(C)(C(=O)/C=C/c1ccc(OC)c(OC)c1)C(=O)/C=C/c1ccc(OC)c(OC)c1 has what AUC(0-t)?
181
